System: MCF-7
Test: in vitro antiproliferation assay, MCF-7 (breast/ER positive)
Format: cell-based
Details: Homo sapiens; MCF7, seeding density 4K; read-out: MCF7(4K)
OBSERVATION TYPE: IC50

Need IC50, item Fc1cnc(Nc2cccc(-c3ncco3)c2)nc1Nc1cc(C2CC2)[nH]n1
≤ 20 µM

###

Tested on: A549 cells
Experiment: in vitro antiproliferation assay, A549 (lung)
Format: cell-based
Conditions: Table 5; in vitro antiproliferation, A549 (lung) cells
pIC50: −log10 of the molar value.
OBSERVATION TYPE: pIC50

> print(dat)
                                   molecule  test.system  reported
1  Fc1cnc(Nc2cccc(-c3ncco3)c2)nc1Nc1ccc2c(c1)OCCO2   A549 cells    ≥ 4.70
2  CNCCOc1cccc(Nc2ncc(F)c(Nc3ccc4c(c3)OCCO4)n2)c1   A549 cells    < 4.70
3  Fc1ccc(Nc2ncc(F)c(Nc3ccc4c(c3)OCCO4)n2)cc1Cl   A549 cells    < 4.70
4  Oc1c(Cl)cc(Nc2ncc(F)c(Nc3ccc4c(c3)OCCO4)n2)cc1Cl   A549 cells    ≥ 4.70

Would you kindly look at the next entry?
# query: pIC50 | item Fc1cnc(Nc2cc(Cl)cc(Cl)c2)nc1Nc1ccc2c(c1)OCO2 | system: A549 cells
≥ 4.70

###

System: A549 cells
Test: in vitro antiproliferation assay, A549 (lung)
Type: cell-based
Details: A549 (lung) cells, antiproliferation
Kindly supply the reported IC50 values for the records listed here.

> print(dat)
                                   molecule  reported
1  CNC(=O)COc1cccc(Nc2ncc(F)c(N(C)c3ccc(Cl)c(OC)c3)n2)c1 [compound 910]   ≤ 20 µM
2  Cc1cc(Nc2ncc(F)c(Nc3ccc(N4CCN(C)CC4)c(C)c3)n2)ccc1N1CCN(C)CC1 [compound 894]   ≤ 20 µM

I'm hoping you can list IC50 for every molecule here, please.
1. CNC(=O)COc1ccc(Nc2nc(Nc3ccc(OC)c(Cl)c3)ncc2F)cc1Cl [compound 917]
2. Cc1cc(Nc2nc(Nc3cccc(OCC(=O)N4CCNCC4)c3)ncc2F)cc(Cl)c1O [compound 983]
3. CCN(CC)CCNC(=O)c1ccc(Nc2ncc(F)c(N(C)c3ccc(Cl)c(Cl)c3)n2)cc1 [compound 1031]
4. CNS(=O)(=O)c1ccc(Nc2ncc(F)c(Nc3ccc(OC)c(OC)c3)n2)cc1OC [compound 879]
5. Cc1ccc(Nc2ncc(F)c(Nc3ccc(C)cc3)n2)cc1 [compound 998]
6. CCOC(=O)COc1cccc(Nc2ncc(F)c(Nc3cc(C)c(O)c(Cl)c3)n2)c1 [compound 952]

1. ≤ 20 µM
2. ≤ 20 µM
3. ≤ 20 µM
4. ≤ 20 µM
5. > 20 µM
6. > 20 µM

I'm hoping you can list IC50 for every molecule here, please.
1. OCCOc1ccc(Nc2ncc(F)c(Nc3cccc(O)c3)n2)cc1 [compound 934]
2. COc1ccc(Nc2nc(Nc3ccc(CNC(=O)OC(C)(C)C)cc3)ncc2F)cc1Cl [compound 1023]
3. Cc1cc(Nc2nc(Nc3cccc(OCCN4CCOCC4)c3)ncc2F)cc(Cl)c1O [compound 957]
4. COC(=O)COc1ccc(Nc2nc(Nc3ccc(OCC(N)=O)cc3)ncc2F)cc1 [compound 973]
5. COc1ccc(Nc2ncc(F)c(Nc3ccc(C(N)=O)cc3)n2)cc1Cl [compound 1028]
6. CCN(CC)CCNC(=O)c1ccc(Nc2ncc(F)c(Nc3ccc(OC)c(Cl)c3)n2)cc1 [compound 1021]
7. COc1cc(Nc2nc(Nc3cccc(OCCO)c3)ncc2F)cc(OC)c1 [compound 940]
8. Cc1cc(C)cc(Nc2nc(Nc3cc(CO)cc(CO)c3)ncc2F)c1 [compound 897]

1. ≤ 20 µM
2. ≤ 20 µM
3. ≤ 20 µM
4. > 20 µM
5. ≤ 20 µM
6. ≤ 20 µM
7. ≤ 20 µM
8. ≤ 20 µM

# query: IC50 | item COc1ccc(Nc2nc(Nc3ccc(C(N)=O)c(Cl)c3)ncc2F)cc1Cl [compound 1033] | system: A549 cells
≤ 20 µM
